pKd values for the binders below.
subject of test: T1, Activin A (UniProt P08476 311-426)
T1 sequence (looked up): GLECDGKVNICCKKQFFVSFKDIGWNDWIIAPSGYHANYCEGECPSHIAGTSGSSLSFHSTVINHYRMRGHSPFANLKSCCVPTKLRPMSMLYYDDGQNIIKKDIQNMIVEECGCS
protocol description: SPR (Biacore 8K), Fc protein captured on anti-human IgG, ligand injected
# pKd is unitless: minus log10 of the molar concentration; print number only

- binder: "ActRIIA-B3 (SEQ ID NO: 97) chimera-Fc protein (Fc fusion, Tested as chimera-Fc protein; not shown: linker (if any) and Fc domain) GAILGRSETQECLFFNANWEKDRTNQTGVEPCYGDKDKRLHCYASWRNSSGSIEIVKQGCWLDDINCYDRTDCVEKKDSPEVYFCCCEGNMCNEKFSYFPEMEVTQPTS"
  parameter: "pKd"
  observed measurement: 10.59

Pending binder:
Noted for ActRIIA-A6 (SEQ ID NO: 108) chimera-Fc protein (Fc fusion, Tested as chimera-Fc protein; not shown: linker (if any) and Fc domain) GAILGRSETQECLFFNANWEKDRTNQTGVEPCYGDKDKRRHCFATWKNISGSIEIVKQGCWLDDINCYDRTDCVEKEENPQVYFCCCEGNMCNEKFSYFPEMEVTQPTS : its pKd reads 10.49

Data provenance is patent US20250270287A1.
